Tested On: PTGER4 (EP4) (Homo sapiens, UniProt P35408)
Construct: host or cells: HEK 293 (PathHunter PTGER4 b-arrestin cell line)
Sequence (P35408 whole entry): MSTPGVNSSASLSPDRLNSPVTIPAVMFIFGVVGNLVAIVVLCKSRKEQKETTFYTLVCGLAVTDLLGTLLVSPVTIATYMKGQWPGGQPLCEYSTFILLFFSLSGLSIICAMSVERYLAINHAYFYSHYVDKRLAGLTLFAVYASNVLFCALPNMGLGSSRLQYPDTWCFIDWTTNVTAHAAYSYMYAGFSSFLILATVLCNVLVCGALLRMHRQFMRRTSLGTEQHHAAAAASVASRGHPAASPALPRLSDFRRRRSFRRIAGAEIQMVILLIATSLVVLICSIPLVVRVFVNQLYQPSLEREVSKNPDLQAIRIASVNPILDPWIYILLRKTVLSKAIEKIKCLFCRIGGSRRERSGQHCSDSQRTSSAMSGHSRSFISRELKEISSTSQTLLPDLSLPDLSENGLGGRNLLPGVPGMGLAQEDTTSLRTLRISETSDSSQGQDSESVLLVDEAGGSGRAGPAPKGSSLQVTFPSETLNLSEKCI
Method Summary: hEP4 b-arrestin assay (PathHunter HEK 293 PTGER4 b-arrestin cells)
Type: cell-based
Particulars: antagonistic activity, beta-arrestin assay; read-out: hEP4 b-arr IC50
The label is 1 (yes) for IC50 below 200 nM and 0 (no) for IC50 equal to or exceeding 200 nM.

Prompt: Bench note: check whether Cc1cc(-c2cc(NCCc3c(C)oc4c(C)cc(F)cc34)ncn2)sc1C(=O)O shows IC50 below 200 nM
Completion: 1 (yes)

* * *

Tested On: PTGER2 (EP2) (Homo sapiens, UniProt P43116)
Sequence (P43116 whole entry): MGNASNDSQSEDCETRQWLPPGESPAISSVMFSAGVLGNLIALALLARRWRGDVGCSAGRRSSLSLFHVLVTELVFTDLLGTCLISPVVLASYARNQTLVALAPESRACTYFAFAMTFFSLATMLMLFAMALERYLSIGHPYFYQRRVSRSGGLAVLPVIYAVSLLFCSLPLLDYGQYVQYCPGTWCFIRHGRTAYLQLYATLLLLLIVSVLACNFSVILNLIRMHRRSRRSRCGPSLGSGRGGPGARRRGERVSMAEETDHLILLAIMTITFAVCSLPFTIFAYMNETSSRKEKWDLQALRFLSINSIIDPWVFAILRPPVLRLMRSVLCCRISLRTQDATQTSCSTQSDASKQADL
Method Summary: hEP2 b-arrestin assay (PathHunter HEK 293 PTGER2 b-arrestin cells)
Particulars: antagonistic activity, beta-arrestin assay; read-out: hEP2 b-arr IC50
pIC50: −log10 of the molar value.
So basically: pIC50 at 8 or higher? That is yes (1). Lower than 8? That is no (0).

Use these answered entries as a reference point.
# Chemical Structure, Tested On, Assigned Class
measured = [
    ("COc1ccc(Cl)c2c(CCNc3cc(-c4ccc(C(=O)O)c(OC5CCCC5)c4)ncn3)c(C)sc12", "PTGER2 (EP2) (Homo sapiens, UniProt P43116)", "no (0)"),
    ("CCOc1cc(-c2cc(NCCc3c(C)sc4c(C)cc(F)cc34)ncn2)ccc1-c1noc(=O)[nH]1", "PTGER2 (EP2) (Homo sapiens, UniProt P43116)", "no (0)"),
    ("CCOc1cc(-c2cc(NCCc3c(C)sc4c(Cl)ccc(Cl)c34)ncn2)ccc1C(=O)O", "PTGER2 (EP2) (Homo sapiens, UniProt P43116)", "no (0)"),
    ("CSc1cc(-c2cc(NCCc3c(C)sc4ccccc34)ncn2)cc(F)c1C(=O)O", "PTGER2 (EP2) (Homo sapiens, UniProt P43116)", "yes (1)"),
    ("COc1cc(-c2cc(NCCc3c(C)sc4c(C)cc(F)cc34)ncn2)ccc1CCC(=O)O", "PTGER2 (EP2) (Homo sapiens, UniProt P43116)", "no (0)"),
    ("Cc1sc2c(C)cc(F)cc2c1CCNc1cc(-c2cc(OC(F)F)c(CC(=O)O)s2)ncn1", "PTGER2 (EP2) (Homo sapiens, UniProt P43116)", "no (0)"),
    ("CSc1cc(-c2cc(NCCc3c(C)sc4c(C)cccc34)ncn2)ccc1C(=O)O", "PTGER2 (EP2) (Homo sapiens, UniProt P43116)", "yes (1)"),
    ("CCOc1cc(-c2cc(NCCc3c(C)oc4c(C)cc(F)cc34)ncn2)sc1C(=O)O", "PTGER2 (EP2) (Homo sapiens, UniProt P43116)", "yes (1)"),
]

Prompt: # bool: pIC50 of Cc1sc2c(C)cc(F)cc2c1CCNc1cc(-c2ccc(CC(=O)O)c(OC(F)(F)F)c2)ncn1 >= 8
Completion: no (0)

Prompt: # bool: pIC50 of CCCc1cc(-c2cc(NCCc3c(C)sc4c(C)cc(F)cc34)ncn2)ccc1C(=O)O >= 8
Completion: no (0)

Prompt: # bool: pIC50 of COc1cc(Cl)cc2c(CCNc3cc(-c4ccc(C(=O)O)c(OC5CCC5)c4)ncn3)c(C)oc12 >= 8
Completion: no (0)

Prompt: # bool: pIC50 of CCOc1cc(-c2cc(NCCc3c(C)sc4c(C)c(F)ccc34)ncn2)ccc1OCC(=O)O >= 8
Completion: no (0)

Prompt: # bool: pIC50 of Cc1cc(-c2cc(NCCc3c(C)oc4c(C)cc(F)cc34)ncn2)sc1C(=O)O >= 8
Completion: no (0)

Prompt: # bool: pIC50 of CCOc1cc(-c2cc(NCCc3c(C)oc4c(Cl)cccc34)ncn2)ccc1CC(=O)O >= 8
Completion: no (0)

Prompt: # bool: pIC50 of Cc1sc2c(C)cccc2c1CCNc1cc(-c2ccc(C(=O)O)c(SCC(C)C)c2)ncn1 >= 8
Completion: no (0)

* * *

Tested On: EP2 receptor (Homo sapiens, UniProt P43116)
Construct: SF295 glioblastoma cells express high endogenous EP2 and no EP4; host or cells: SF295 glioblastoma cells
Method Summary: hEP2 cAMP assay (SF295 glioblastoma cells, HTRF cAMP, PGE2 stimulation)
Type: cell-based
Particulars: antagonistic activity
Please go through the items and note down their IC50.
One number for each entry, in nM.

Answered cases to consult:
# Chemical Structure, IC50 / nM
records = [
    ("Cc1sc2c(C)cc(F)cc2c1CCNc1cc(-c2ccc(CC(=O)O)c(CC(C)C)c2)ncn1", 617),
    ("CCSc1cc(-c2cc(NCCc3c(C)sc4c(C)cccc34)ncn2)ccc1C(=O)O", 14),
    ("Cc1cc(F)cc2c(CCNc3cc(-c4ccc(C(=O)O)c(OC(C)C)c4)ncn3)c(C#N)sc12", 50),
]

Give one value of IC50 per listed compound.
1. Cc1sc2c(C)cc(F)cc2c1CCNc1cc(-c2ccc(C(=O)O)c(OC3CC3)c2)ncn1
2. COc1ccc(Cl)c2c(CCNc3cc(-c4ccc(C(=O)O)c(OC5CCC5)c4)ncn3)c(C)sc12
3. Cc1cc(F)cc2c(CCNc3cc(-c4ccc(CC(=O)O)c(OC(C)C)c4)ncn3)c(C#N)sc12
4. Cc1sc2c(C)cc(F)cc2c1CCNc1cc(-c2ccc(C(=O)O)c(O)c2)ncn1

Completion:
1: 6; 2: 30; 3: 275; 4: 32

Give one value of IC50 per listed compound.
1. CCOc1cc(-c2cc(NCCc3c(C)oc4c(Cl)cccc34)ncn2)sc1C(=O)O
2. Cc1cc(-c2cc(NCCc3c(C)oc4c(C)cc(F)cc34)ncn2)sc1C(=O)O
3. Cc1oc2c(C)cc(F)cc2c1CCNc1cc(-c2ccc(C(=O)O)c(OC3CCCC3)c2)ncn1
4. CCOc1cc(-c2cc(NCCc3c(C)sc4c(C)cc(F)cc34)ncn2)ccc1NCC(=O)O
5. CCOc1cc(-c2cc(NCCc3c(Cl)sc4ccccc34)ncn2)ccc1C(=O)O
6. CCc1nc(-c2cc(NCCc3c(C)sc4c(C)cc(F)cc34)ncn2)sc1C(=O)O

Completion:
1: 2; 2: 23; 3: 70; 4: 37; 5: 9; 6: 27

* * *

Tested On: PTGER2 (EP2) (Homo sapiens, UniProt P43116)
Method Summary: hEP2 b-arrestin assay (PathHunter HEK 293 PTGER2 b-arrestin cells)
Particulars: antagonistic activity, beta-arrestin assay; read-out: hEP2 b-arr IC50
Metric: IC50 (µM)
One number for each entry, in µM.

Answered cases to consult:
# Chemical Structure, IC50 (µM)
rows = [
    ("COc1cc(F)c(F)c2c(CCNc3cc(-c4ccc(C(=O)O)c(OC5CCC5)c4)ncn3)c(C)oc12", 0.14),
    ("CCCc1cc(-c2cc(NCCc3c(C)sc4c(C)cc(F)cc34)ncn2)ccc1C(=O)NCCOC", 0.062),
    ("Cc1sc2c(C)cc(F)cc2c1CCNc1cc(-c2ccc(C(=O)O)c(OC3CC3)c2)ncn1", 0.004),
    ("CCCc1cc(-c2cc(NCCc3c(C#N)sc4c(C)cc(F)cc34)ncn2)ccc1CC(=O)O", 0.019),
    ("Cc1sc2c(C)cc(F)cc2c1CCNc1cc(-c2ccc(-c3noc(=O)[nH]3)cc2)ncn1", 0.047),
]

Give one value of IC50 per listed compound.
1. Cc1cc(F)cc2c(CCNc3cc(-c4ccc(C(=O)O)c(OC(C)C)c4)ncn3)c(C#N)sc12
2. Cc1sc2c(C)cc(F)cc2c1CCNc1cc(-c2ccc(C(N)=O)cc2)ncn1
3. CCCOc1cc(-c2cc(NCCc3c(C#N)sc4c(C)cc(F)cc34)ncn2)ccc1CC(=O)O
4. Cc1sc2c(C)cc(F)cc2c1CCNc1cc(-c2cc3cccc(C(=O)O)c3[nH]2)ncn1

Completion:
0.04
0.048
0.03
0.024

* * *

Tested On: PTGER4 (EP4) (Homo sapiens, UniProt P35408)
Method Summary: hEP4 b-arrestin assay (PathHunter HEK 293 PTGER4 b-arrestin cells)
Particulars: antagonistic activity, beta-arrestin assay; read-out: hEP4 b-arr IC50
The label is true for IC50 below 700 nM and false for IC50 equal to or exceeding 700 nM.

# Chemical Structure, Assigned Class
measured = [
    ("CCOc1cc(-c2cc(NCCc3c(C)sc4c(OC)ccc(F)c34)ncn2)sc1C(=O)O", "true"),
]

Prompt: Bench note: check whether Cc1sc2c(C)cccc2c1CCNc1cc(-c2ccc(C(=O)O)c(SCC(C)C)c2)ncn1 shows IC50 below 700 nM
Completion: true

Prompt: Bench note: check whether CCCc1cc(-c2cc(NCCc3c(C)sc4c(C)cc(F)cc34)ncn2)ccc1C(=O)NCC(C)(C)O shows IC50 below 700 nM
Completion: true

Prompt: Bench note: check whether Cc1oc2c(C)cc(F)cc2c1CCNc1cc(-c2ccc(C(=O)O)c(OC3CCC3)c2)ncn1 shows IC50 below 700 nM
Completion: false
